- Test: log P determination
- Test Settings: pH 2.3
Readings of logP for the listed compounds
Please respond with just the number, no unit label.

query: Quick one: logP of Fc1ccsc1C1=NC(c2ccc(-c3ccc(OC(F)(F)F)cc3)cc2)CC1 (stereo not drawn) ?
result: 3.18

Others:
query: Query: logP; subject: FC(F)(F)Oc1ccc(-c2ccc(C3CCC(c4ccc(Br)s4)=N3)cc2)cc1 (stereo not drawn)
result: 4.73

====

- Test: log P determination
Attribute Measured: logP

query: Using the record for C=CCOc1ccc(C2CCC(c3sccc3Cl)=N2)cc1 (stereo not drawn) , report its logP.
result: 2.29

query: Then what about the molecule FC(F)(F)Oc1ccc(Oc2ccc(C3CCC(c4sccc4Cl)=N3)cc2)cc1 (stereo not drawn) ?
result: 4.5

From here, focus on the item given below.
query: Give its logP value. Item: C#CCOc1ccc(C2CCC(c3sccc3Cl)=N2)cc1 (stereo not drawn)
result: 1.97
